# methodDescription: Pharmacokinetics in humans, MRTX1133 formulation, oral, single and multiple doses
# Type: in vivo
# assayConditions: human, plasma, po, 400 mg, single oral dose of 400 mg with a low-fat meal; 2 h; mean of subjects; read-out: Plasma concentration, Mean
# Experimental: The pharmacokinetics [PK] of the MRTX1133 formulation after oral administration has been evaluated in 25 subjects across 3 escalating dose frequencies under fasting conditions (200 mg twice daily [BID], 400 mg BID, and 800 mg BID), as well as evaluation of 400 mg BID when administered with a low-fat meal (i.e., under fed conditions). The mean (+standard deviation) single-dose and multiple-dose pharmacokinetic profiles of the evaluated doses are presented in FIG. 9 and FIG. 10, respectively. […]
readoutLabel: concentration at 2 h (ng/mL)
Enter your answer as a number in ng/mL; do not include the unit.

// concentration at 2 h lookup, key: `C#Cc1c(F)ccc2cc(O)cc(-c3ncc4c(N5C[C@H]6CC[C@@H](C5)N6)nc(OC[C@@]56CCCN5C[C@H](F)C6)nc4c3F)c12`
43.6
